Values were extracted from PubChem BioAssay (NCI).

# assay text: NCI Yeast Anticancer Drug Screen. Data for the mec2-1 strain (AID 157)
# cond: S. cerevisiae mec2-1 strain, at 50.0 µM, stronger effect = higher value
This is part of a sample that, as a whole, favours compounds with a hit. Of some 79,000 tested, about 15% had one in any assay.

molecule: CN(Cc1ccccc1)C(=O)c1cccc(C(=O)N(C)Cc2ccccc2)c1
growth inhibition [%]: 22.5
--
molecule: N#Cc1cnc(=S)n(-c2cc(C(F)(F)F)cc(C(F)(F)F)c2)c1N
growth inhibition [%]: -10.9
--
molecule: COC(=O)c1c2c(cc3nc4ccccc4nc13)OCO2
growth inhibition [%]: 9.75
--
molecule: O=CC12c3ccccc3C(c3ccccc31)C1C(=O)NC(=O)C12 (centres undefined)
growth inhibition [%]: -1.05
--
molecule: CCCCOc1c(Cl)cc(Cl)cc1-c1ccccc1
growth inhibition [%]: 9.6
--
molecule: CCCCCCCCCCCc1cc(=O)n(-c2ccccc2)n1C
growth inhibition [%]: 99.2
--
molecule: Nc1ccc2c(=O)[nH][nH]c2c1
growth inhibition [%]: -40.5
--
molecule: Cc1nc2c(c(=O)[nH]1)S/C(=C(/C#N)c1nc3ccccc3[nH]1)N2c1ccccc1
growth inhibition [%]: -29
--
molecule: CC[N+](CC)(CCO)CCCCCCCCCC[N+](CC)(CC)CCO
growth inhibition [%]: -4.15
